Listed next: entries and their corresponding IC50.
# assayMethodText: Plasma-Based Clot Lysis Assay: The clot-lysis test system configures the kinetics of clot formation and degradation in vitro and allows quantifying modulation of the process by selected test compounds.The test compounds were dissolved in 1% acetic acid and further complemented with an equal volume of DMSO. The resulting stock solutions were serially diluted in 0.5% acetic acid/50% DMSO. 1 μL aliquots of these solutions were placed into 384 well microplates (Greiner, black, transparent bottom), followed by 30 μL of diluted human citrated plasma (platelet-poor, final concentration: 5%; supplemented with fibrinogen, final concentration: 3 μM; dilution buffer: 20 mM HEPES, 150 mM NaCl, 0.01% Brij (pH 7)). The reactions were started by addition of 20 μL of CaCl2 (final concentration: 10 mM), and tPA (tissue plasminogen activator, final concentration: 0.2 nM) in dilution buffer, followed by an additional volume of 20 μL dilution buffer for improved mixing. The reactions were incubated at 37° C. Clot formation and degradation was monitored spectrophotometrically by kinetic optical density measurements at 405 nm. IC50 values were determined by comparing the resulting time courses with the time course of a blank control reaction.
The reply should be a number in µM, with the unit left off.

smilesData	IC50 [µM]
Nc1cccc2nn3c(C4CCNCC4)cc(=O)[nH]c3c12	0.035
O=c1cc(C2CCNCC2)n2nc3cc(F)cnc3c2[nH]1	0.021

IC50 lookup needed for O=c1cc(C2CCNCC2)n2nc3cncc(Br)c3c2[nH]1 , thanks. 0.1
